Reported partition coefficient K values for the following molecules.
Assay: Oil/water partition coefficient from flooding experiment on silica-packed column at residual oil saturation
Assay type: physicochemical
Condition Notes: 80° C., oil 2 and water 2
Returns: the value as a bare number; no unit string appended.

In the examples that follow, each entry is paired with its recorded partition coefficient K.
Input Smiles	Quantity Name	Result Value
OCc1cc(F)cc(F)c1	partition coefficient K	2.9
OCc1ccc(F)c(F)c1	partition coefficient K	2.1
OCc1ccccc1F	partition coefficient K	1.5
OCc1c(F)cccc1F	partition coefficient K	1.5
OCc1c(F)cc(F)cc1F	partition coefficient K	2.4

Here's the next entry for you.
Quick one: give measured partition coefficient K for `OCc1c(F)ccc(F)c1F`
1.9
